test system: LNCap; experiment: Inhibition of tumor cell proliferation, LNCap; type: cell-based, human; settings: Homo sapiens, LNCaP, 72 h, read-out: Cancer Cell Line (IC50, nM) LNCap
quantity kind: IC50 (nM)
One number for each entry, in nM.

// for each molecule below, give its IC50
1. CNC(=O)OC/C=C(\C)C[C@H](C)[C@@H](O)[C@H](C)C(=O)[C@H](C)/C=C(C)/C=C/C[C@@H](C)/C=C(C)\C=C\[C@H]1CC=CC(=O)O1
2. CC(=C/[C@H](C)C/C=C/C(C)=C/[C@@H](C)C(=O)[C@@H](C)[C@H](O)[C@@H](C)C/C(C)=C/COC(=O)NCc1ccccc1)/C=C/[C@H]1CC=CC(=O)O1
3. CC(=C/[C@H](C)C/C=C/C(C)=C/[C@@H](C)C(=O)[C@@H](C)[C@H](OC(N)=O)[C@@H](C)C/C(C)=C/COC(N)=O)/C=C/[C@H]1CC=CC(=O)O1

1: 0.4; 2: 1.8; 3: 1.5

---

test system: BT474; assay: Inhibition of tumor cell proliferation, BT474; format: cell-based; settings: Homo sapiens, BT-474; exposure time 1 h
What IC50 was measured for each of the following?
One number for each entry, in nM.

{"compound": "CC(=C/[C@H](C)C/C=C/C(C)=C/[C@@H](C)C(=O)[C@@H](C)[C@H](OC(N)=O)[C@@H](C)C/C(C)=C/COC(N)=O)/C=C/[C@H]1CC=CC(=O)O1", "unit abbreviation": "nM", "IC50": 3.8}

Switching to the query record.
So, CCC(=C/[C@H](C)C/C=C/C(C)=C/[C@@H](C)C(=O)[C@@H](C)[C@H](O)[C@@H](C)C/C(C)=C/C(=O)NCCc1cccnc1)/C=C/[C@@H]1OC(=O)C=C[C@@H]1C [VI, reference compound] ? Its IC50 was 2.1

---

test system: CRM1 substrate RanBP1; test: Nuclear export block (RanBP1 localization, recovery after compound removal); assay type: cell-based; settings: recovery of cytoplasmic RanBP1 localization after compound washout (typically 1 h exposure; 8, 24 or 48 h recovery)
quantity kind: Nuclear Export Block

{"compound": "CC(C=CC1CC=CC(=O)O1)=CC(C)CC=CC(C)=CC(C)C(=O)C(C)C(O)C(C)CC(C)=CCOC(=O)NCCc1cccnc1 (stereo not drawn) [Compound A-6]", "target desc": "CRM1 substrate RanBP1", "recorded result": "Slow recovery"}
{"compound": "CC(=C/[C@H](C)C/C=C/C(C)=C/[C@@H](C)C(=O)[C@@H](C)[C@H](O)[C@@H](C)C/C(C)=C/COC(=O)NCc1ccccc1)/C=C/[C@H]1CC=CC(=O)O1 [Compound A-1]", "target desc": "CRM1 substrate RanBP1", "recorded result": "Slow recovery"}

---

test system: NCI-H358; assay: Inhibition of tumor cell proliferation, NCI-H358; assay type: cell-based; conditions: Homo sapiens, exposure time 1 h
quantity kind: IC50 (nM)
One number for each entry, in nM.

{"compound": "CC(=C/[C@H](C)C/C=C/C(C)=C/[C@@H](C)C(=O)[C@@H](C)[C@H](OC(N)=O)[C@@H](C)C/C(C)=C/COC(N)=O)/C=C/[C@H]1CC=CC(=O)O1", "IC50 [nM]": 5.6}

With those in mind, consider the next compound.
Item: CCC(=C/[C@H](C)C/C=C/C(C)=C/[C@@H](C)C(=O)[C@@H](C)[C@H](O)[C@@H](C)C/C(C)=C/C(=O)NCCc1cccnc1)/C=C/[C@@H]1OC(=O)C=C[C@@H]1C [VI, reference compound] | IC50: 1.6
